Parameter: folding enthalpy. Scope: all listed entries.
# method-notes: folding enthalpy; higher = less favourable; fluorescence melt of hairpins on a sequencing array, two-state fit
# condition-label: sodium 0.088 M
# number only, unit kcal/mol dropped from output

Please review the entries below; each comes with its answer.
[[record]]
monomer_sequence = "GATCTATGATTAGATC ((((((....))))))"
measured_result = -31.9

[[record]]
monomer_sequence = "GCTGTTGCGAAAGCAAGC (((..(((....))))))"
measured_result = -12.6

[[record]]
monomer_sequence = "GATCGGGTAACCGATC ((((((....))))))"
measured_result = -36.6

[[record]]
monomer_sequence = "GACCCTGAAAAGGGTC ((((((....))))))"
measured_result = -33.7

[[record]]
monomer_sequence = "GCTTGAGGAAACTTAAGC ((((.((....)).))))"
measured_result = -26.4


Q: Look up folding enthalpy of GATCCGCTACCGGATC ((((((....)))))) and report it.
Ans: -48

Q: Look up folding enthalpy of GATCCGCATGCGGATC ((((((....)))))) and report it.
Ans: -30.3

Q: Look up folding enthalpy of GCGATCAGTCGC ((((....)))) and report it.
Ans: -23.2

Q: Look up folding enthalpy of GCACTTGGAAACAAATGC (((.(((....))).))) and report it.
Ans: -24.8

Q: Look up folding enthalpy of GAATACGGAAACGTATTC (((((((....))))))) and report it.
Ans: -36.5

Q: Look up folding enthalpy of GATCCACGAAAGTGAATC (((.(((....))).))) and report it.
Ans: -24.2

Q: Look up folding enthalpy of GCGGGTTCCCGC ((((....)))) and report it.
Ans: -23.3
